The reported numbers originate from patent US10294214B2.

- TARGET_ENTITY: hMC4R (Homo sapiens (Human), UniProt P32245)
- Sequence (P32245 whole entry): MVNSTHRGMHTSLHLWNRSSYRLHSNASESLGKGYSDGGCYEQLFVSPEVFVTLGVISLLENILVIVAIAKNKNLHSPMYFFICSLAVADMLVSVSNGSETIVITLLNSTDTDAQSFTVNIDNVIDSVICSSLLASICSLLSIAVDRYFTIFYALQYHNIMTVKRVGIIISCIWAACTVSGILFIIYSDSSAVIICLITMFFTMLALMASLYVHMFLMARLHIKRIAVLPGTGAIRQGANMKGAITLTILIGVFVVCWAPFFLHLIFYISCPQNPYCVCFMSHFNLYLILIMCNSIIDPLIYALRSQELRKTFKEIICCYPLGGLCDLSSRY
- ASSAY_OVERVIEW: LANCE cAMP assay, hMC4R PAM
- Type: cell-based
- TEST_SETTINGS: HEK293 cells stably expressing the hMC4R; α-MSH at an EC20 dose
- Experimental: Analysis of pharmacological properties of compounds was performed using the LANCE cAMP kit (Perkin Elmer). HEK293 cells stably expressing the hMC4R were treated with PAM compounds at doses indicated, then incubated with an Alexa Fluor 647-labeled antibody in stimulation buffer according to manufacturer's instructions for 30 min at RT. […] Plates were then incubated for 30 minutes at RT and read on a Viewlux (Perkin Elmer) using 618 and 671 nm emission filters. […]
METRIC: hMC4R PAM LANCE pEC50 Mean

// known answers, use as guide
Kindly note the recorded hMC4R PAM LANCE pEC50 Mean for `CC(=O)c1[nH]c2ccccc2c1NC(=O)CN1CCC(Cc2ccccc2)CC1` , which is 6.1

Kindly note the recorded hMC4R PAM LANCE pEC50 Mean for `CC1(C)CCCN(CC(=O)Nc2c(C(=O)C3CC3)[nH]c3ccc(Br)cc23)C1` , which is 6.4

Kindly note the recorded hMC4R PAM LANCE pEC50 Mean for `CC(=O)c1[nH]c2ccc(Br)cc2c1NC(=O)CN1CCC(c2ccccc2)CC1` , which is 6.4

Kindly note the recorded hMC4R PAM LANCE pEC50 Mean for `CC(=O)c1[nH]c2ccccc2c1NC(=O)CN1CCC(C2CCCC2)CC1` , which is 6.5

Further cases:
Kindly note the recorded hMC4R PAM LANCE pEC50 Mean for `CC(=O)c1[nH]c2ccncc2c1NC(=O)CN1CCC(C(C)(C)C)CC1` , which is 6.3

---

- TARGET_ENTITY: native L cell MC4R (Mus musculus (Mouse), UniProt P56450)
- Sequence (P56450 whole entry): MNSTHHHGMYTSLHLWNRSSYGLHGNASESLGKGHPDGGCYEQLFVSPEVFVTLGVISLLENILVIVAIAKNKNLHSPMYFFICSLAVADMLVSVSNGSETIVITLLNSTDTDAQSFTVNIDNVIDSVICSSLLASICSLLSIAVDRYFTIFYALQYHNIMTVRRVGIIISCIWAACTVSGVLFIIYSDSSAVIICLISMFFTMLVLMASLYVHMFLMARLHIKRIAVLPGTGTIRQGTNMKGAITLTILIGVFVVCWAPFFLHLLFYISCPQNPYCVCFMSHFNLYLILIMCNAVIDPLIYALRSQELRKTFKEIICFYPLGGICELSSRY
- ASSAY_OVERVIEW: Ussing chamber assay, α-MSH inhibition of VIP-elevated Isc in mouse colon mucosa
- TEST_SETTINGS: mouse colonic epithelium; read-out: EC50 for potentiation of α-MSH induced short circuit current inhibition
- Description: FIGS. 2A-2I contain data on the characterization of hMC4R PAMs Examples 1, 2, and 3. FIGS. 2A, 2B, and 2C show structures of Examples 1-3, and the affect of Examples 1-3 on the α-MSH dose-response curve at the hMC4R, as determined using the Lance assay. […] Vertical arrows show the timepoint at which α-MSH Isc responses were recorded. […] ISC responses in μA are expressed as the mean±SEM per unit area (cm2). […]
pEC50: −log10 of the molar value.
METRIC: pEC50

Kindly note the recorded pEC50 for `COC(=O)c1[nH]c2ccccc2c1NC(=O)CN1CCC(C2CCCCC2)CC1` , which is ~6.70

---

Listing of recorded hMC4R PAM LANCE pEC50 Mean by entry.
- TARGET_ENTITY: hMC4R (Homo sapiens (Human), UniProt P32245)
- ASSAY_OVERVIEW: LANCE cAMP assay, hMC4R PAM
- Assay type: cell-based
- TEST_SETTINGS: HEK293 cells stably expressing the hMC4R; α-MSH at an EC20 dose
Format: numeric value only, no unit, no commentary.

Kindly note the recorded hMC4R PAM LANCE pEC50 Mean for `CCOC(=O)c1[nH]c2ncccc2c1NC(=O)CN1CCCC(C)(C)C1` , which is 5.7

Further cases:
Kindly note the recorded hMC4R PAM LANCE pEC50 Mean for `O=C(CN1CCC(C2CCCCC2)CC1)Nc1c(C(=O)C2CC2)[nH]c2ccncc12` , which is 6.6

Kindly note the recorded hMC4R PAM LANCE pEC50 Mean for `COC(=O)c1[nH]c2ccc(Cl)cc2c1NC(=O)CN1CCN(c2ccccc2)CC1` , which is 6.2
